target.of.assay: recombinant human PKA (Homo sapiens, UniProt P17612)
Construct: recombinant human PKA (residues 1-351, N-terminal His-tag); His-tag (N); purchased Invitrogen, Karlsruhe, Germany
test.summary: Determination of Protein Kinase A inhibition (selectivity)
Format: biochemical
run.parameters: from IC50 values
As shown below, each of these compounds has a reported Selectivity against PKA value.
measured.endpoint: Selectivity against PKA

1) CC[C@]1(C(C)N)CC[C@@H](Oc2cc3cc[nH]c(=O)c3cc2C)CC1 (some centres unmarked): >300 fold
2) CCC(N)[C@]1(CC)CC[C@H](Oc2cc3cc[nH]c(=O)c3cc2F)CC1 (some centres unmarked): >300 fold
3) CC(N)C1(CC2CC2)CCC(Oc2cc3cc[nH]c(=O)c3cc2Cl)CC1 (single isomer, unassigned) [Example 10]: >1000 fold
4) NC(c1ccccc1)C1(C2CCCC2)CCC(Oc2cc3cc[nH]c(=O)c3cc2Cl)CC1 (single isomer, unassigned): >300 fold
5) CCC(N)C1(C)CCC(Oc2cc3cc[nH]c(=O)c3cc2Cl)CC1 (single isomer, unassigned): >1000 fold
6) CCC(N)[C@]1(C2CCSCC2)CC[C@H](Oc2cc3cc[nH]c(=O)c3cc2Cl)CC1 (some centres unmarked): >1000 fold
7) CCCC(N)[C@]1(C(C)C)CC[C@H](Oc2cc3cc[nH]c(=O)c3cc2Cl)CC1 (some centres unmarked): >300 fold
8) CCC(N)[C@]1(OC)CC[C@@H](Oc2cc3cc[nH]c(=O)c3cc2Cl)CC1 (some centres unmarked): >100 fold
9) CC(C)CC(N)[C@]1(CC2CC2)CC[C@H](Oc2cc3cc[nH]c(=O)c3cc2Cl)CC1 (some centres unmarked): >1000 fold
10) CCC(N)[C@]1(C2CCOCC2)CC[C@H](Oc2cc3cc[nH]c(=O)c3cc2Cl)CC1 (mixture of isomers) [Example 1]: >1000 fold
11) NC(C1CC1)C1(CC2CC2)CCC(Oc2cc3cc[nH]c(=O)c3cc2Cl)CC1 (single isomer, unassigned) [Example 16]: >300 fold
12) CCC1(C(C)N)CCC(Oc2cc3cc[nH]c(=O)c3cc2Cl)CC1 (single isomer, unassigned) [Example 4]: >300 fold
13) CC(C)C1(C(N)c2cncs2)CCC(Oc2cc3cc[nH]c(=O)c3cc2Cl)CC1 (single isomer, unassigned): >300 fold
14) CC(N)[C@]1(C2CC2)CC[C@H](Oc2cc3cc[nH]c(=O)c3cc2Cl)CC1 (some centres unmarked): >300 fold
15) CCCC(N)C1(CC2CC2)CCC(Oc2cc3cc[nH]c(=O)c3cc2Cl)CC1 (single isomer, unassigned) [Example 14]: >1000 fold
16) CCC(N)C1(C2CCC2)CCC(Oc2cc3cc[nH]c(=O)c3cc2Cl)CC1 (single isomer, unassigned) [Example 22]: >300 fold
17) CCC(N)C1(CC2CC2)CCC(Oc2cc3cc[nH]c(=O)c3cc2Cl)CC1 (single isomer, unassigned) [Example 13]: >10 fold
18) CCC(N)[C@]1(C2CCS(=O)(=O)CC2)CC[C@H](Oc2cc3cc[nH]c(=O)c3cc2Cl)CC1 (some centres unmarked): >1000 fold
19) CCCC1(C(N)CC)CCC(Oc2cc3cc[nH]c(=O)c3cc2Cl)CC1 (single isomer, unassigned): >1000 fold
20) CCC(N)C1(Cc2ccccc2)CCC(Oc2cc3cc[nH]c(=O)c3cc2Cl)CC1 (single isomer, unassigned) [Example 30]: >300 fold
21) CCCC(N)C1(CC2CC2)CCC(Oc2cc3cc[nH]c(=O)c3cc2Cl)CC1 (single isomer, unassigned) [Example 15]: >10 fold
22) CCC(N)C1(Cc2ccccc2)CCC(Oc2cc3cc[nH]c(=O)c3cc2Cl)CC1 (single isomer, unassigned) [Example 31]: >10 fold
23) CCC(N)C1(C(C)C)CCC(Oc2cc3cc[nH]c(=O)c3cc2Cl)CC1 (single isomer, unassigned) [Example 9]: >10 fold
24) CCC(N)C1(C(F)(F)F)CCC(Oc2cc3cc[nH]c(=O)c3cc2Cl)CC1 (single isomer, unassigned): >1000 fold
25) CCC(N)[C@]1(C(C)C)CC[C@H](Oc2cc3c(F)c[nH]c(=O)c3cc2Cl)CC1 (some centres unmarked): >300 fold
26) C[C@]1(C(N)c2ccccc2)CC[C@@H](Oc2cc3cc[nH]c(=O)c3cc2Cl)CC1 (some centres unmarked): >100 fold
27) CCC(N)C1(CC2CC2)CCC(Oc2cc3cc[nH]c(=O)c3cc2Cl)CC1 (single isomer, unassigned) [Example 12]: >1000 fold
28) CCC(N)C1(C2CCOCC2)CCC(Oc2cc3cc[nH]c(=O)c3cc2Cl)CC1 (single isomer, unassigned): >1000 fold
29) CCC(N)C1(C2CCC2)CCC(Oc2cc3cc[nH]c(=O)c3cc2Cl)CC1 (single isomer, unassigned) [Example 23]: >10 fold
